- Study System: human LTBR on cells (human, UniProt P36941 31-435)
- Experimental Details: cell-based or functional assay
Please respond with reported NFκB luc, 234.4 ng/ml, with x linker for every item in the list.
Report the figure in RLU without appending any unit label.

get_value(item= P1AF0080 (antibody, human IgG1, kappa, L234A L235A, V domains shown, human IgG1 PG LALA; from transgenic rabbit immunization; also called LTBR (0080)) VH: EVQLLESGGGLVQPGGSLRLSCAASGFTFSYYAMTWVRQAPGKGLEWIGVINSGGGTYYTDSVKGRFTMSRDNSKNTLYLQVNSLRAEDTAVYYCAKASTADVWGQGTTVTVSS VL: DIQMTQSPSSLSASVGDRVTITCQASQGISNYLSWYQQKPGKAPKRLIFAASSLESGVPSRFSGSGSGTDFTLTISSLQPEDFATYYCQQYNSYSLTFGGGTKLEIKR , readout=NFκB luc, 234.4 ng/ml, with x linker) returns 34100

The value of NFκB luc, 234.4 ng/ml, with x linker measured for the binder P1AE9450 (antibody, human IgG1, kappa, L234A L235A, V domains shown, human IgG1 PG LALA; from transgenic rabbit immunization; also called LTBR (9450)) VH: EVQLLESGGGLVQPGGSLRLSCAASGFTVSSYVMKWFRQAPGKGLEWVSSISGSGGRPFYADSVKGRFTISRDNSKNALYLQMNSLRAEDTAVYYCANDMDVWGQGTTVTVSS VL: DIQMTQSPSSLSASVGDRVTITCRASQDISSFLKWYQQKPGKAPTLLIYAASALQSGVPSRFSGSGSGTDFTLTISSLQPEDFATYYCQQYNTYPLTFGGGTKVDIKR turned out to be 30500

# binder P1AE1873 (CBE11) (antibody, human IgG1, kappa, L234A L235A, V domains shown) VH: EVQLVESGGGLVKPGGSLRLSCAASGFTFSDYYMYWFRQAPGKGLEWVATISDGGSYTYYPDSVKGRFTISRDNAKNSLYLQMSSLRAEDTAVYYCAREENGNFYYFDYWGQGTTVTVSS VL: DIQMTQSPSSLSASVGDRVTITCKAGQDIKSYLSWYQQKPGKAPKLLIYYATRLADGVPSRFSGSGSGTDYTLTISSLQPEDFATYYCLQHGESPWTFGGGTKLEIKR ; its NFκB luc, 234.4 ng/ml, with x linker = 67700

Reported NFκB luc, 234.4 ng/ml, with x linker for P1AF0064 (antibody, human IgG1, kappa, L234A L235A, V domains shown, human IgG1 PG LALA constant regions; V domains from rat immunization; also called LTBR (0064)) VH: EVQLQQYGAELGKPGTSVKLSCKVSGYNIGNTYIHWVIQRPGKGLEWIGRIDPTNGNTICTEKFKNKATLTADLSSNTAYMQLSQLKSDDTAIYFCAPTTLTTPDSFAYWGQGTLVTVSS VL: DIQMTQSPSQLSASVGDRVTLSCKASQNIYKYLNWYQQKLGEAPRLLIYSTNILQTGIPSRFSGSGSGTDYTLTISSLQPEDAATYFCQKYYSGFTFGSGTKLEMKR was 53900

The measured NFκB luc, 234.4 ng/ml, with x linker associated with P1AE9457 (antibody, human IgG1, kappa, L234A L235A, V domains shown, human IgG1 PG LALA; from transgenic rabbit immunization; also called LTBR (9457)) VH: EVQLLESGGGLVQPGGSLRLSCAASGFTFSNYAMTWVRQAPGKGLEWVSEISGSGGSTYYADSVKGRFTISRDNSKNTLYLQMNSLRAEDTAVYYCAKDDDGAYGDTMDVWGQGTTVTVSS VL: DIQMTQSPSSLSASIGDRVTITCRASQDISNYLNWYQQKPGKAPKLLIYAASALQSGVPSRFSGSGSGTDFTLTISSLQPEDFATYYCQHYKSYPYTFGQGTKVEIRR reads 21900

Value of measured NFκB luc, 234.4 ng/ml, with x linker for the entry P1AE9452 (antibody, human IgG1, kappa, L234A L235A, V domains shown, human IgG1 PG LALA; from transgenic rabbit immunization; also called LTBR (9452)) VH: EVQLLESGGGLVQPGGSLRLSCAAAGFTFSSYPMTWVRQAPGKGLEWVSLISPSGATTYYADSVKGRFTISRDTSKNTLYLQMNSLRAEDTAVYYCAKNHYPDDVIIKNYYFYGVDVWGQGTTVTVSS VL: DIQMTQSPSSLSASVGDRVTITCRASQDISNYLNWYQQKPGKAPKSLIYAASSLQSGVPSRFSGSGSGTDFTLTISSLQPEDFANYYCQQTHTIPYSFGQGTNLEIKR : 28100

// NFκB luc, 234.4 ng/ml, with x linker lookup, binder = P1AF0079 (antibody, human IgG1, kappa, L234A L235A, V domains shown, human IgG1 PG LALA; from transgenic rabbit immunization; also called LTBR (0079)) VH: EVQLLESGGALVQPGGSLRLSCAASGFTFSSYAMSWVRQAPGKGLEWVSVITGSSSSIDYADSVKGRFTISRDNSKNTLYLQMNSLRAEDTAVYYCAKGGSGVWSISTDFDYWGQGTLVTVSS VL: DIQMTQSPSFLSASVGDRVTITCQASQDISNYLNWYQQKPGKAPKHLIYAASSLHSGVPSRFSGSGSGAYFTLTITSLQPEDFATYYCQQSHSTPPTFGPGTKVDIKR , result: 18200

Recorded NFκB luc, 234.4 ng/ml, with x linker (binder P1AE9459 (antibody, human IgG1, kappa, L234A L235A, V domains shown, human IgG1 PG LALA; from transgenic rabbit immunization) VH: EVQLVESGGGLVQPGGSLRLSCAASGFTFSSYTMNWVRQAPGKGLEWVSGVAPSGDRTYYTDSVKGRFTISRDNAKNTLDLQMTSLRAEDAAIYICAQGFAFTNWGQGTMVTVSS VL: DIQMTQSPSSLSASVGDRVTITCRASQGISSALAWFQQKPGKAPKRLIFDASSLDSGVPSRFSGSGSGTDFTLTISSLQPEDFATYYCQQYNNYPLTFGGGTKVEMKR ): 40700
